test: chemical genetic growth profiling, strain panel (AID 1159580);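 note: tested at 20 µM; growth read once vehicle control cultures reached saturation at 30 °C; 1 = growth at the plate median or of vehicle wells; lower values mean less growth of the strain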
study conditions: S. cerevisiae deletion strains, growth OD, locus YJL168C, strain set2, active compounds read low
Out of some 5,500 compounds screened, about 2,000 (36%) were called active. Inconclusive results (about 18%) are left out. This is one part of the list.
readout type: normalized growth

| compound | experimental result |
| --- | --- |
| NC[C@H](O)c1ccc(O)c(O)c1 | 1.02 |
| Cc1occc(=O)c1/C=C/O | 1.01 |
| C=C(C)[C@H]1CC=C(C(=O)O)CC1 | 0.968 |
| CC(C)NCC(O)c1ccc2ccccc2c1 (stereo not drawn) | 0.991 |
| O=[N+]([O-])c1ccc(O)c([N+](=O)[O-])c1 | 0.719 |
| Nc1ccc(S(=O)(=O)Nc2ccc(Cl)nn2)cc1 | 1 |
| O=C(O)/C=C/C=C/c1ccccc1 | 0.929 |
| NCCNC(=O)c1ccc(Cl)cc1 | 0.984 |
| OC[C@@H](O)[C@@H](O[C@@H]1O[C@H](CO)[C@@H](O)[C@H](O)[C@H]1O)[C@H](O)[C@@H](O)CO | 1.01 |
| O=C1CCCC2C3CC(CN12)[C@@H]1CCCCN1C3 (stereo partly drawn) | 1 |
| Nc1nc2ncc(C(=O)O)nc2c(=O)[nH]1 | 1.05 |
| C1CCN2CC3CC(CN4CCCCC34)C2C1 (stereo not drawn) | 1.01 |
| CN/C(=C\[N+](=O)[O-])NCCSCc1ccc(CN(C)C)o1 | 0.988 |
| CN[C@H](CC(=O)O)C(=O)O | 0.98 |
| O=[N+]([O-])c1cc(O)c(O)c([N+](=O)[O-])c1 | 0.978 |
| CC(=O)Oc1ccc(Cl)c2cccnc12 | 0.062 |
| O[N+]1=CC=CCC1=S.On1ccccc1=S.[Zn] | 0.0599 |
| c1ccc2c3c([nH]c2c1)CNCC3 | 1 |

###

// reported normalized growth per item
test: chemical genetic growth profiling, strain panel (AID 1159580);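 note: tested at 20 µM; growth read once vehicle control cultures reached saturation at 30 °C; 1 = growth at the plate median or of vehicle wells; lower values mean less growth of the strain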
study conditions: S. cerevisiae deletion strains, growth OD, locus YNR049C, strain mso1, active compounds read low
The campaign covered roughly 5,500 compounds. About 2,000 (36%) were called active. Roughly 18% stayed inconclusive and do not appear here. The list shows a part of the results.
readout type: normalized growth

| compound | readout type | experimental result |
| --- | --- | --- |
| C1CCN2CC3CC(CN4CCCCC34)C2C1 (configuration not stated) | normalized growth | 1.02 |
| C1CCN2C[C@@H]3C[C@H](CN4CCCC[C@@H]34)[C@H]2C1 | normalized growth | 1.01 |
| C=C(C)C1CC=C(CO)CC1 (configuration not stated) | normalized growth | 0.951 |
| C=C(C)[C@H]1CC=C(C(=O)O)CC1 | normalized growth | 0.971 |
| O=C(OC1Cc2c(O)cc(O)cc2OC1c1cc(O)c(O)c(O)c1-c1c(C2Oc3cc(O)cc(O)c3CC2OC(=O)c2cc(O)c(O)c(O)c2)cc(O)c(O)c1O)c1cc(O)c(O)c(O)c1 (configuration not stated) | normalized growth | 1.02 |
| O=C1CCCC2C3CC(CN12)[C@@H]1CCCCN1C3 (some centres not stated) | normalized growth | 0.994 |
| OC[C@@H]1CCCN2CCCC[C@H]12 | normalized growth | 1.03 |
| O=[N+]([O-])c1cc([As](=O)(O)O)ccc1O | normalized growth | 0.945 |
| O=C(O)CCCCC1CCSS1 (configuration not stated) | normalized growth | 0.97 |
| CC(=O)O[C@H]1C[C@@H](OC(C)=O)C(C)(C)C2C[C@@H](OC(C)=O)[C@@]3(C)C4=CC(=O)O[C@@H](c5ccoc5)[C@]4(C)CCC3[C@]21C (some centres not stated) | normalized growth | 1 |
| CC(=O)Nc1cc([As](=O)(O)O)ccc1O | normalized growth | 1.01 |
| CC1(C)C(=O)C=C[C@@]2(C)C1=C(O)C(=O)[C@]1(C)C2CC[C@@]2(C)[C@H](c3ccoc3)C[C@H]3O[C@]321 (some centres not stated) | normalized growth | 0.962 |
| CC(=O)NCCCS(=O)(=O)O | normalized growth | 1.02 |
| CO[C@H]1/C=C/O[C@@]2(C)Oc3c(C)c(O)c4c(O)c(c5c(nc6cc(C)ccn65)c4c3C2=O)NC(=O)/C(C)=C\C=C\[C@H](C)[C@H](O)[C@@H](C)C(O)[C@@H](C)[C@H](OC(C)=O)[C@@H]1C (some centres not stated) | normalized growth | 1.03 |
| Nc1ccc(S(=O)(=O)Nc2ccc(Cl)nn2)cc1 | normalized growth | 0.995 |
| CC(=O)O[C@@H]1C[C@@]2(C)[C@H](c3ccoc3)C[C@H]3O[C@]32[C@]2(C)C(=O)C(O)=C3C(C)(C)C(=O)C=C[C@]3(C)C12 (some centres not stated) | normalized growth | 0.959 |
| C=C(CC)C(=O)c1ccc(OCC(=O)O)c(Cl)c1Cl | normalized growth | 1.01 |
| CCC(Cc1c(I)cc(I)c(N)c1I)C(=O)O (configuration not stated) | normalized growth | 0.925 |
| CC(=O)NCCCCCC(=O)O | normalized growth | 0.973 |
| O[N+]1=CC=CCC1=S.On1ccccc1=S.[Zn] | normalized growth | 0.0598 |
| COc1cc(OC)c2c(=O)c(-c3ccccc3)c(C)oc2c1OC | normalized growth | 0.976 |
| CC(=O)O[C@@H]1CC2C(C)(C)C=CC(=O)[C@]2(C)C2CC[C@@]3(C)[C@H](c4ccoc4)OC(=O)C4OC43[C@@]21C (some centres not stated) | normalized growth | 1 |

###

test: chemical genetic growth profiling, strain panel (AID 1159580);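 note: tested at 20 µM; growth read once vehicle control cultures reached saturation at 30 °C; 1 = growth at the plate median or of vehicle wells; lower values mean less growth of the strain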
study conditions: S. cerevisiae deletion strains, growth OD, locus YAL021C, strain ccr4
In all, about 5,500 compounds went through this assay and about 2,000 (36%) were called active. Not shown: some 18% with an inconclusive outcome. No stated cut-off is given here; in the data, active means normalized growth mostly below about 0.91 (no sharp cut-off); inconclusive means no clear call, values can overlap the other calls; inactive means mostly above about 0.92. The list shows a part of the results.
Possible outcomes: YES for active, NO for inactive

| compound | assigned label |
| --- | --- |
| CCOP(=S)(OCC)SCn1c(=O)oc2cc(Cl)ccc21 | NO |
| CC(C)(C)NC[C@@H](O)COc1nsnc1N1CCOCC1 | NO |
| C=CC(C1=CC(=O)C(OC)=CC1=O)c1ccc(OC)cc1 (stereo not given) | YES |
| CC(=O)O[C@H]1C[C@@H](OC(C)=O)C(C)(C)C2C[C@@H](OC(C)=O)[C@@]3(C)C4=CC(=O)O[C@@H](c5ccoc5)[C@]4(C)CCC3[C@]21C (stereo not given in full) | NO |
| C=C(C)C1CC=C(CO)CC1 (stereo not given) | NO |
| O=C(O)c1ccccc1Nc1cccc(C(F)(F)F)c1 | YES |
| C[n+]1cccc(C(=O)[O-])c1 | NO |
| CC1(C)C(=O)C=C[C@@]2(C)C1=C(O)C(=O)[C@]1(C)C2CC[C@@]2(C)[C@H](c3ccoc3)C[C@H]3O[C@]321 (stereo not given in full) | NO |
| C=C(NC(=O)C(=C)NC(=O)c1csc(C2=NC3c4csc(n4)C4NC(=O)c5csc(n5)C(C(C)(O)C(C)O)NC(=O)C5CSC(=N5)C(=CC)NC(=O)C(C(C)O)NC(=O)c5csc(n5)C3(CC2)NC(=O)C(C)NC(=O)C(=C)NC(=O)C(C)NC(=O)C(C(C)CC)NC2C=Cc3c(C(C)O)cc(nc3C2O)C(=O)OC4C)n1)C(N)=O (stereo not given) | NO |
| Cc1ccsc1/C=C/C1=NCCCN1C | NO |
| C1CCN2C[C@@H]3C[C@H](CN4CCCC[C@@H]34)[C@H]2C1 | NO |
| C=C[C@@H](C1=CC(=O)C(OC)=C(OC)C1=O)c1ccccc1 | YES |
| CN/C(=C\[N+](=O)[O-])NCCSCc1ccc(CN(C)C)o1 | NO |
| C=C(C)[C@H]1CC=C(C(=O)O)CC1 | NO |
| Cc1c(O)c(O)cc2c1CC=C1[C@@]2(C)CC[C@@]2(C)C3C[C@](C)(C(=O)O)CC[C@]3(C)CC[C@]12C (stereo not given in full) | YES |

###

test: chemical genetic growth profiling, strain panel (AID 1159580);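 note: tested at 20 µM; growth read once vehicle control cultures reached saturation at 30 °C; 1 = growth at the plate median or of vehicle wells; lower values mean less growth of the strain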
study conditions: S. cerevisiae deletion strains, growth OD, locus YCL016C, strain dcc1
The campaign covered roughly 5,500 compounds. About 2,000 (36%) were called active. Roughly 18% stayed inconclusive and do not appear here. No stated cut-off is given here; in the data, active means normalized growth mostly below about 0.91 (no sharp cut-off); inconclusive means no clear call, values can overlap the other calls; inactive means mostly above about 0.92. The list shows a part of the results.
Outcomes: True (active), False (inactive)

| compound | assigned label |
| --- | --- |
| Nc1ccc(S(=O)(=O)Nc2ccccn2)cc1 | False |
| N[C@@H](Cc1ccc(O)c(O)c1)C(=O)O | False |
| CC(=O)NCCCS(=O)(=O)O | False |
| CC(C)=CCC/C(C)=C/CC/C(C)=C/CC/C(C)=C/CC/C(C)=C/CC/C(C)=C/CC/C(C)=C/CC/C(C)=C/CC/C(C)=C/CO | False |
| O=C1O[C@H](C(O)CO)C(O)=C1O (some centres undefined) | False |
| CC(=O)/C(=C\c1ccccc1)CC(=O)O | False |
| CC1(C)C(=O)C=C[C@@]2(C)C1=C(O)C(=O)[C@]1(C)C2CC[C@@]2(C)[C@H](c3ccoc3)C[C@H]3O[C@]321 (some centres undefined) | True |
| CC(=O)O[C@@H]1CC2C(C)(C)C=CC(=O)[C@]2(C)C2CC[C@@]3(C)[C@H](c4ccoc4)OC(=O)C4OC43[C@@]21C (some centres undefined) | False |
| Cc1ccc2c(Cl)cc(Cl)c(O)c2n1 | False |
| O=C1C=CC2=C3c4cc(O)c(O)cc4CC3(O)COC2=C1O (centres undefined) | False |
| CCCC1O[C@@H]2CC3C4CCC5=CC(=O)C=CC5(C)C4[C@@H](O)CC3(C)[C@]2(C(=O)CO)O1 (some centres undefined) | False |
| C=CCC1(C(C)CCC)C(=O)N=C(S)NC1=O (centres undefined) | False |
| C=C(NC(=O)C(=C)NC(=O)c1csc(C2=NC3c4csc(n4)C4NC(=O)c5csc(n5)C(C(C)(O)C(C)O)NC(=O)C5CSC(=N5)C(=CC)NC(=O)C(C(C)O)NC(=O)c5csc(n5)C3(CC2)NC(=O)C(C)NC(=O)C(=C)NC(=O)C(C)NC(=O)C(C(C)CC)NC2C=Cc3c(C(C)O)cc(nc3C2O)C(=O)OC4C)n1)C(N)=O (centres undefined) | False |
| Cc1ccsc1/C=C/C1=NCCCN1C | False |
| CCCCC(CC)CN1CN(CC(CC)CCCC)CC(C)(N)C1 (centres undefined) | True |
| COc1cccc(/C=C/C(=O)O)c1C(C)C | False |
| O=[N+]([O-])c1ccc(O)c([N+](=O)[O-])c1 | True |
| CCCC(C)C1(CC)C(=O)NC(=O)NC1=O (centres undefined) | False |
| Nc1ccc(C(=O)NCC(=O)O)cc1 | False |
| C=CC(C1=CC(=O)C=CC1=O)c1ccccc1 (centres undefined) | False |
| CS(=O)(=O)CCCCN=C=S | True |
| Oc1c(I)cc(Cl)c2cccnc12 | True |
| Oc1c(Cl)cc(Cl)c2cccnc12 | True |
| O=[N+]([O-])c1cc(O)c(O)c([N+](=O)[O-])c1 | False |
| CC1(C)CCCC2(C)C3C1[C@@H](O)C2(C)C[C@H]3O (some centres undefined) | False |
| OC[C@@H](O)[C@@H](O[C@@H]1O[C@H](CO)[C@@H](O)[C@H](O)[C@H]1O)[C@H](O)[C@@H](O)CO | False |
| CO[C@H]1/C=C/O[C@@]2(C)Oc3c(C)c(O)c4c(O)c(c(/C=N/N5CCN(C)CC5)c(O)c4c3C2=O)NC(=O)/C(C)=C\C=C\C(C)[C@H](O)[C@@H](C)[C@@H](O)[C@@H](C)[C@@H](OC(C)=O)[C@@H]1C (some centres undefined) | False |
| CC(=O)Oc1ccc(Cl)c2cccnc12 | True |
| Nc1ccc(S(=O)(=O)Nc2ccc(Cl)nn2)cc1 | False |
| O=[N+]([O-])c1cc([As](=O)(O)O)ccc1O | False |
| O=C(O)CCCCC1CCSS1 (centres undefined) | False |
| O[N+]1=CC=CCC1=S.On1ccccc1=S.[Zn] | True |
| Oc1ccc(Cl)c2cccnc12 | True |
| C[n+]1cccc(C(=O)[O-])c1 | False |
